- target: T1, streptavidin-R-phycoerythrin (UniProt P22629 37-163, limits assumed)
- T1 construct: Bought conjugate; also called SA-PE; fluorescently-conjugated streptavidin probe
- T1 sequence (P22629 37-163 limits assumed): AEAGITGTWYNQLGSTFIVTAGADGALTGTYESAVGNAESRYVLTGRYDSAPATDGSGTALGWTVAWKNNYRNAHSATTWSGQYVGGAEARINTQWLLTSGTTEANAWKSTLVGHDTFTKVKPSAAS
- measurement.protocol: flow cytometry of E. coli displaying the construct, 100 nM SA-PE; 25 minutes of expression
Give 1.0 when the value for Relative Display level (fold fluorescence above background) is at least 20 fold above background. Give 0.0 when it is less.

binder	qualitative.label
CPX-L2-8 displaying SApep at the N-terminus (other) GQSGQAECHPQGPPCIEGRKGGQSGQSGDYNKNQYYGITAGPAYRINDWASIYGVVGVGYGKFQTTEYPTYKHDTSDYGFSYGAGLQFNPMENVALDFSYEQSRIRSVDVGTWIVSVGYRFGPNKSRATSTVTGGYAQSDAQGQMNKMGGFNLKYRYEEDNSPLGVIGSFTYTEKSRTAS	0.0
CPX-L2-4 displaying SApep at the N-terminus (other) GQSGQAECHPQGPPCIEGRKGGQSGQSGDYNKNQYYGITAGPAYRINDWASIYGVVGVGYGKFQTTEYPTYKHDTSDYGFSYGAGLQFNPMENVALDFSYEQSRIRSVDVGTWILSVGYRFGHRSHRATSTVTGGYAQSDAQGQMNKMGGFNLKYRYEEDNSPLGVIGSFTYTEKSRTAS	1.0
CPX with the streptavidin binding peptide fused to the N-terminus (pB33CPX-SApep) (other, also called parent CPX scaffold) GQSGQAECHPQGPPCIEGRKGGQSGQSGDYNKNQYYGITAGPAYRINDWASIYGVVGVGYGKFQTTEYPTYKHDTSDYGFSYGAGLQFNPMENVALDFSYEQSRIRSVDVGTWIAGVGYRFGGSGATSTVTGGYAQSDAQGQMNKMGGFNLKYRYEEDNSPLGVIGSFTYTEKSRTAS	0.0
CPX-L2-5 displaying SApep at the N-terminus (other) GQSGQAECHPQGPPCIEGRKGGQSGQSGDYNKNQYYGITAGPAYRINDWASIYGVVGVGYGKFQTTEYPTYKHDTSDYGFSYGAGLQFNPMENVALDFSYEQSRIRSVDVGTWIISVGYRFGDRKRRATSTVTGGYAQSDAQGQMNKMGGFNLKYRYEEDNSPLGVIGSFTYTEKSRTAS	1.0
CPX-L2-6 displaying SApep at the N-terminus (other) GQSGQAECHPQGPPCIEGRKGGQSGQSGDYNKNQYYGITAGPAYRINDWASIYGVVGVGYGKFQTTEYPTYKHDTSDYGFSYGAGLQFNPMENVALDFSYEQSRIRSVDVGTWIVAVGYRFGARGRHATSTVTGGYAQSDAQGQMNKMGGFNLKYRYEEDNSPLGVIGSFTYTEKSRTAS	1.0
CPX-L2-7 displaying SApep at the N-terminus (other) GQSGQAECHPQGPPCIEGRKGGQSGQSGDYNKNQYYGITAGPAYRINDWASIYGVVGVGYGKFQTTEYPTYKHDTSDYGFSYGAGLQFNPMENVALDFSYEQSRIRSVDVGTWIVSVGYRFGTHNSQATSTVTGGYAQSDAQGQMNKMGGFNLKYRYEEDNSPLGVIGSFTYTEKSRTAS	1.0

Value source: patent US20160010082A1
